Source of measurements: PubChem BioAssay (NCI)

System: KM12 colon
Test: NCI tumour cell line growth inhibition, 48 h
MEASURED_QUANTITY: GI50

Cc1ccc(-c2nc3nc(-c4ccccc4)nc(N4CCCNCC4)c3o2)cc1; 1.77 µM
CS(=O)(=O)CCNCc1ccc(-c2ccc3ncnc(Nc4ccc(OCc5ccccc5)cc4)c3c2)o1; 8.85 µM
Cc1ccc(C(=O)NC(C)C)cc1-c1ccc(C(=O)NCC2CC2)cc1; > 25 µM
COc1ccc2c(c1)CCCN2c1c2ccccc2nc2ccccc12; 0.386 µM

Challenge: I would be grateful if you could share the reported GI50 for O=C(CC1C(=O)NN(c2ccc(Br)cc2)C1=O)c1cc(O)ccc1O (stereo not given) .
Response given: 9.84 µM

====

# maps each entry to its TGI
System: SNB-75 CNS
Test: NCI tumour cell line growth inhibition, 48 h

Examples with their reported TGI follow.
COCCCNC(=O)C1C(=O)C(=O)N(CCCOC)C1=O (stereo not drawn); > 100 µM
CN(C)/N=C(/CC(O)(C(F)(F)F)C(F)(F)F)c1ccc([N+](=O)[O-])cc1; > 100 µM

Challenge: I would be grateful if you could share the reported TGI for "CC[C@@]1(c2ccccc2)C2=C(CC(C)(C)CC2=O)Nc2[nH]ncc21" .
Response given: > 100 µM

====

Tested on: ACHN renal
Assay: NCI tumour cell line growth inhibition, 48 h
# maps each entry to its TGI

CC/C=C\C[C@@H](O)C/C=C1/C(=O)C=C[C@H]1C/C=C\CCCC(=O)OC; 4.02 µM

Challenge: Record lookup: for ACHN renal, what TGI belongs to "Cc1nc(-c2cc3c(ccc4ccccc43)oc2=O)cs1" ?
Response given: > 100 µM

Challenge: Record lookup: for ACHN renal, what TGI belongs to "CCOC(=O)CCCNC(=O)CCCCC(=O)N(C)C" ?
Response given: > 100 µM

Challenge: Record lookup: for ACHN renal, what TGI belongs to "C[N+](C)(C)CCCSc1nc2ccccc2[nH]1" ?
Response given: > 100 µM

Challenge: Record lookup: for ACHN renal, what TGI belongs to O=C(CC1(O)C(=O)Nc2c(Cl)ccc(Cl)c21)c1ccc(F)cc1 (stereo unspecified) ?
Response given: > 100 µM

Challenge: Record lookup: for ACHN renal, what TGI belongs to "O=[N+]([O-])c1ccc2c(c1)S(=O)(=O)N1Cc3ccccc3CCN21" ?
Response given: > 100 µM

====

Test system: IGROV1 ovarian
Assay: NCI tumour cell line growth inhibition, 48 h
MEASURED_QUANTITY: TGI

O=C(O)COCC(=O)N(CCOCCN(Cc1ccccc1)C(=O)COCC(=O)O)Cc1ccccc1; > 100 µM
NCCCCC(NC(=O)C(N)Cc1ccc(O)cn1)C(=O)O (centres undefined); > 100 µM

Challenge: I would be grateful if you could share the reported TGI for "N#CC(C#N)=C1Nc2ccccc2S1" .
Response given: > 100 µM

Challenge: I would be grateful if you could share the reported TGI for "O=S(=O)(SC1=NCCN1)c1ccc2ccccc2c1" .
Response given: > 100 µM

Challenge: I would be grateful if you could share the reported TGI for "CN(C)/N=C(/CC(O)(C(F)(F)F)C(F)(F)F)c1ccc([N+](=O)[O-])cc1" .
Response given: > 100 µM

Challenge: I would be grateful if you could share the reported TGI for "COc1ccc2c(c1)CCCN2c1c2ccccc2nc2ccccc12" .
Response given: 34.7 µM

Challenge: I would be grateful if you could share the reported TGI for COC1(OC)CC2OC1C1N=NN(C(=O)OC(C)(C)C)C21 (centres undefined) .
Response given: > 100 µM

Challenge: I would be grateful if you could share the reported TGI for "Cc1cc2cc3c(cc2c(-c2ccc([N+](=O)[O-])cc2)n1)OCO3" .
Response given: 54.9 µM

Challenge: I would be grateful if you could share the reported TGI for "Nc1nc(N(Cc2ccccc2)c2ccccc2)c2cn[nH]c2n1" .
Response given: > 100 µM

====

Tested on: NCI-H23 lung
Assay: NCI tumour cell line growth inhibition, 48 h
MEASURED_QUANTITY: TGI

COCCCNC(=O)C1C(=O)C(=O)N(CCCOC)C1=O (stereo unspecified); > 100 µM
Cc1ccc(C(=O)NC(C)C)cc1-c1ccc(C(=O)NCC2CC2)cc1; > 25 µM

Challenge: I would be grateful if you could share the reported TGI for "C/C(CC(=O)Nc1cc(C)ccc1C)=N\NC(=O)c1ccncc1" .
Response given: > 100 µM

Challenge: I would be grateful if you could share the reported TGI for "O=c1[nH]c(=O)n(CCOc2ccccc2)cc1Nc1ccccc1" .
Response given: > 100 µM

Challenge: I would be grateful if you could share the reported TGI for "Ic1ccc2c(c1)N(c1ccccc1)c1cc(N=c3ccc4nc5ccc(I)cc5n(-c5ccccc5)c-4c3)ccc1N2" .
Response given: > 100 µM

Challenge: I would be grateful if you could share the reported TGI for CC1CN1C(=O)NCCCCCCNC(=O)N1CC1C (stereo unspecified) .
Response given: > 100 µM

====

Test system: PC-3 prostate
Assay: NCI tumour cell line growth inhibition, 48 h
MEASURED_QUANTITY: TGI

Examples with their reported TGI follow.
CCOC1Oc2ccc(C)cc2C(=O)/C1=C\Nc1ccc(C(N)=O)cc1 (stereo not drawn); > 100 µM
CCN(CC)CCn1nc(N)c2nc3ccccc3nc21; > 100 µM

Query compound follows.
Challenge: I would be grateful if you could share the reported TGI for COC(=O)/C=C(/C=C1/C(C#N)=C(N)N(c2ccc(Cl)cc2)C1(C)/C(=C/C(=O)OC)C(=O)OC)C(=O)OC (stereo not drawn) .
Response given: > 100 µM

====

# maps each entry to its TGI
Test system: A498 renal
Experiment: NCI tumour cell line growth inhibition, 48 h

CN(CCC(=O)O)C1=Nc2ccc(Cl)cc2C(c2ccccc2)=[N+]([O-])C1; > 100 µM
COC(=O)/C=C(/C=C1/C(C#N)=C(N)N(c2ccc(Cl)cc2)C1(C)/C(=C/C(=O)OC)C(=O)OC)C(=O)OC (stereo not drawn); > 100 µM

Query compound follows.
Challenge: I would be grateful if you could share the reported TGI for OC1(c2ccccc2)C2CCN(CC2)C1CN1CCOCC1 (stereo not drawn) .
Response given: > 100 µM

====

# maps each entry to its TGI
System: HS 578T breast
Assay: NCI tumour cell line growth inhibition, 48 h

Examples with their reported TGI follow.
CCCC(=O)OCC1OC(n2cnc3c(=S)nc[nH]c32)C(OC(=O)CCC)C1OC(=O)CCC (centres undefined); > 100 µM
Cc1ccc(S(=O)(=O)c2ccsc2NC(=O)C(F)(F)F)cc1; > 100 µM
CS(=O)(=O)CCNCc1ccc(-c2ccc3ncnc(Nc4ccc(OCc5ccccc5)cc4)c3c2)o1; > 20.5 µM

Query compound follows.
Challenge: I would be grateful if you could share the reported TGI for "CCOC(=O)CCCNC(=O)CCCCC(=O)N(C)C" .
Response given: > 100 µM

====

System: SW-620 colon
Test: NCI tumour cell line growth inhibition, 48 h
# maps each entry to its TGI

Examples with their reported TGI follow.
Cc1cc(C)c2c(O)c(S(=O)(=O)c3ccc(Cl)cc3)c(=O)oc2c1; > 100 µM
O=C(O)CCC(=O)Nc1ccc2ccccc2c1; > 100 µM
CCN(CC)CCn1nc(N)c2nc3ccccc3nc21; > 100 µM
CN1CCN(c2ccc3[nH]c(-c4cc(O)c5c(nc(CO)n5C)c4O)nc3n2)CC1; > 100 µM

Query compound follows.
Challenge: I would be grateful if you could share the reported TGI for c1nc(N2CC2)c2cnn(C3CCCCO3)c2n1 (stereo unspecified) .
Response given: > 100 µM

====

# maps each entry to its GI50
Tested on: SF-295 CNS
Test: NCI tumour cell line growth inhibition, 48 h

Examples with their reported GI50 follow.
O=C(Nc1ccncc1)C(=O)c1cn(S(=O)(=O)c2cccc(F)c2)c2ccccc12; 2840 nM
COc1ccc2c(c1)CCCN2c1c2ccccc2nc2ccccc12; 281 nM

Query molecule follows.
Challenge: I would be grateful if you could share the reported GI50 for "O=C(Nc1ccc(-c2nc(N3CCOCC3)c3cccn3n2)cc1)Nc1cccnc1" .
Response given: 102 nM

====

# maps each entry to its TGI
System: HL-60(TB) leukemia
Experiment: NCI tumour cell line growth inhibition, 48 h

Examples with their reported TGI follow.
CCCCC(=O)c1ccc2ccccc2c1O; > 100 µM
CC(=N)OC1CC2CCC1(C)C2(C)C (stereo unspecified); > 100 µM
O=C(CC1C(=O)NN(c2ccc(Br)cc2)C1=O)c1cc(O)ccc1O (stereo unspecified); > 50 µM
COc1ccc2c(c1)[n+](=O)c(C(=O)C/C(=N/OCCCc1ccccc1)C(=O)NC13CC4CC(CC(C4)C1)C3)c(C)n2[O-]; > 100 µM

Challenge: I would be grateful if you could share the reported TGI for O=C1CCC2(c3ccccc3)Nc3ccncc3N12 (stereo unspecified) .
Response given: > 10 µM

Challenge: I would be grateful if you could share the reported TGI for "O=c1cc(N2CCNCC2)nc2ccccn12" .
Response given: > 100 µM

Challenge: I would be grateful if you could share the reported TGI for "COC(=O)Nc1nc2ccc(Oc3ccc(NC(=O)Nc4cc(C(F)(F)F)ccc4F)cc3)cc2s1" .
Response given: > 25 µM
